Each recorded value in this set is attributed to the supplement of paper PMC10567573.

B1: KLHDC10 (parent)
chain: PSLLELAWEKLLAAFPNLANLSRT

# Variants of: B1
# Assay Procedure: protein stability index of a GFP-peptide fusion (GPS, HEK-293T) (PSI 1-6); higher = more stable;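 further: lentivirally expressed fusions sorted by FACS into six bins by GFP to DsRed ratio, PSI derived from sequencing read proportions per bin multiplied by bin number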
# Test Conditions: c terminus: a fixed tail appended
Quantity Kind: protein stability index

Input: Could you tell me which protein stability index is on file for F15H ?
Output: 2.06

Input: Could you tell me which protein stability index is on file for S22A ?
Output: 2.81

Input: Could you tell me which protein stability index is on file for R23L ?
Output: 2.42

Input: Could you tell me which protein stability index is on file for L21F ?
Output: 2.54

Input: Could you tell me which protein stability index is on file for S2Y ?
Output: 2.36

Input: Could you tell me which protein stability index is on file for W8H ?
Output: 2.54

Input: Could you tell me which protein stability index is on file for P16C ?
Output: 2.23

Input: Could you tell me which protein stability index is on file for L3N ?
Output: 1.63

Input: Could you tell me which protein stability index is on file for S22F ?
Output: 2.46

Input: Could you tell me which protein stability index is on file for L18W ?
Output: 1.82

Input: Could you tell me which protein stability index is on file for L3I ?
Output: 1.56

Input: Could you tell me which protein stability index is on file for A7K ?
Output: 2.73

Input: Could you tell me which protein stability index is on file for S2P ?
Output: 2.25

Input: Could you tell me which protein stability index is on file for K10W ?
Output: 2.53

Input: Could you tell me which protein stability index is on file for L21H ?
Output: 2.72

Input: Could you tell me which protein stability index is on file for L3F ?
Output: 2.22

Input: Could you tell me which protein stability index is on file for P16V ?
Output: 3.1

Input: Could you tell me which protein stability index is on file for K10C ?
Output: 1.63

Input: Could you tell me which protein stability index is on file for P16T ?
Output: 2.01

Input: Could you tell me which protein stability index is on file for K10Q ?
Output: 1.95

Input: Could you tell me which protein stability index is on file for L21P ?
Output: 2.07

Input: Could you tell me which protein stability index is on file for A7I ?
Output: 1.97

Input: Could you tell me which protein stability index is on file for S22C ?
Output: 2.34

Input: Could you tell me which protein stability index is on file for P16L ?
Output: 1.78

Input: Could you tell me which protein stability index is on file for L18G ?
Output: 2.56

Input: Could you tell me which protein stability index is on file for S2N ?
Output: 1.77

Input: Could you tell me which protein stability index is on file for P1S ?
Output: 1.85

Input: Could you tell me which protein stability index is on file for L6S ?
Output: 2.28

Input: Could you tell me which protein stability index is on file for L11P ?
Output: 2.39

Input: Could you tell me which protein stability index is on file for A14I ?
Output: 2.83

Input: Could you tell me which protein stability index is on file for T24M ?
Output: 2.17

Input: Could you tell me which protein stability index is on file for F15T ?
Output: 2.1

Input: Could you tell me which protein stability index is on file for P1Q ?
Output: 2.21

Input: Could you tell me which protein stability index is on file for P1V ?
Output: 2

Input: Could you tell me which protein stability index is on file for E5C ?
Output: 1.97

Input: Could you tell me which protein stability index is on file for F15S ?
Output: 1.92

Input: Could you tell me which protein stability index is on file for F15E ?
Output: 2.36

Input: Could you tell me which protein stability index is on file for R23S ?
Output: 1.55

Input: Could you tell me which protein stability index is on file for E9S ?
Output: 2.35

Input: Could you tell me which protein stability index is on file for W8V ?
Output: 2.19

Input: Could you tell me which protein stability index is on file for N17S ?
Output: 2.29

Input: Could you tell me which protein stability index is on file for N20I ?
Output: 2.24

Input: Could you tell me which protein stability index is on file for P1H ?
Output: 2.21

Input: Could you tell me which protein stability index is on file for E5N ?
Output: 2.72

Input: Could you tell me which protein stability index is on file for E5A ?
Output: 2.28

Input: Could you tell me which protein stability index is on file for S2G ?
Output: 1.72
